Value source: patent US20060094649A1

system: HLA-B*1801 (human)
assay name: competition with labeled probe peptide, purified HLA class I
measure name: IC50 (nM)
Just the number please, in nM, no unit attached.

Req: Provide one value: measured IC50 of LESEFQAAL [LESEFQAAL (MAGE3, position printed 301)]
Resp: 5.4
